# Test system: SNB-75
# METHOD_DESCRIPTION: NCI tumour cell line growth inhibition, 48 h
Calls of active or inactive are those of the source. Rule as the data show it: active = GI50 up to about 1.1 µM and inactive = higher.
# GI50 per entry

Some compounds with known GI50 results, for comparison:
• CC1=C(C(=O)Nc2ccccc2C)C(c2ccc(C3C(C(=O)Nc4ccccc4C)=CNC=C3C(=O)Nc3ccccc3C)cc2)C(C(=O)Nc2ccccc2C)=C(C)N1 = 19.5 µM (inactive)
• O=C1OC2(c3ccccc3Oc3ccccc32)c2ccccc21 = > 100 µM (inactive)
• O=c1oc2ccc3ccccc3c2cc1-c1cn2c(n1)sc1ccccc12 = > 100 µM (inactive)

Record COc1cccc(/C=C2\CCC(CN(C)C)C2=O)c1 (stereo not given) , field GI50: 17 µM (inactive)

# GI50 (compound: CCN(CC)CCOc1ccc(C(=C2CCCCC2)c2ccc(OCCN(CC)CC)cc2)cc1 ) is 1.45 µM (inactive)
